molecular target: Hemoglobin HbA (Homo sapiens) (UniProt P69905+P68871); assay: Binding affinity to hemoglobin (unknown origin) assessed as increase in release of carbon monooxide from carboxyhemoglobin by measuring half life of carboxyhemoglobin at 5:1 compound/Hb tetramer ratio incubated for 1 hr measured every 15 mins for 90 mins (reference value: 80 +/- 0.3 min); assay type: protein-complex assay
Sequence (P68871 2-147 partner limits assumed): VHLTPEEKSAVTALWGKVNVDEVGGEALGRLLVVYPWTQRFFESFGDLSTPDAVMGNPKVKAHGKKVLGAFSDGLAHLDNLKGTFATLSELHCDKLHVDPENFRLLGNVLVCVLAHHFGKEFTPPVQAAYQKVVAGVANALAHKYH
Sequence (P69905 2-142 limits assumed): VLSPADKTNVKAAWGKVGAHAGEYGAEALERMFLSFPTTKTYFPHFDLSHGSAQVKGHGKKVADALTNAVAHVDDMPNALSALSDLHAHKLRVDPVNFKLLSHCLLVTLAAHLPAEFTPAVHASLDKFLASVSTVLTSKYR
Assignment: determine reported T1/2 for the given compounds.
Number only, in h; omit the unit.

Which T1/2 reading was recorded for the compound `Cc1cc(C)cc(C(=O)N(C)[C@H](Cc2ccccc2)C(=O)N[C@@H](Cc2c[nH]c3ccccc23)C(=O)O)c1` ? 1.23

Looking for the measured T1/2 of `Cc1cc(C)cc(C(=O)N[C@H](Cc2ccc(-c3ccco3)cc2)C(=O)N[C@@H](Cc2c[nH]c3ccccc23)C(=O)O)c1` , can you help? 1.18

Which value of T1/2 has been reported for `Cc1cc(C)cc(C(=O)N[C@H](Cc2ccc(-c3ccc(CN(C)C)o3)cc2)C(=O)N[C@@H](Cc2c[nH]c3ccccc23)C(=O)O)c1` in the records? 1.2

* * *

molecular target: Hemoglobin HbA (Homo sapiens) (UniProt P69905+P68871); assay: Binding affinity to hemoglobin (unknown origin) assessed as increase in release of carbon monooxide from carboxyhemoglobin by measuring half life of carboxyhemoglobin at 20:1 compound/Hb tetramer ratio incubated for 1 hr measured every 15 mins for 90 mins (reference value: 80 +/- 0.3 min); format: protein-complex assay
QUANTITY MEASURED: T1/2 (h)
Provide the reading as a plain figure in h.

Please look up its T1/2: `Cc1cc(C)cc(C(=O)N[C@H](Cc2ccc(-c3cnn(C)c3)cc2)C(=O)N[C@@H](Cc2c[nH]c3ccccc23)C(=O)O)c1` 1.15

Fill in: T1/2 of `Cc1cc(C)cc(C(=O)N[C@H](Cc2ccc(-c3c(C)noc3C)cc2)C(=O)N[C@@H](Cc2c[nH]c3ccccc23)C(=O)O)c1` is ___ 0.95

What measured T1/2 goes with `Cc1cc(C)cc(C(=O)N[C@H](Cc2ccc(-c3cncnc3)cc2)C(=O)N[C@@H](Cc2c[nH]c3ccccc23)C(=O)O)c1` ? 1.28

Look at this compound and give its reported T1/2. `Cc1cc(C)cc(C(=O)N[C@H](Cc2ccc(-c3c(CO)noc3C)cc2)C(=O)N[C@@H](Cc2c[nH]c3ccccc23)C(=O)O)c1` 1.08
